Please go through the items and note down their kon.
Target: T1, Cynomolgus monkey CD98 ECD with C-terminal His-tag (cynomolgus monkey, UniProt P08195 105-529 (human entry))
T1 construct: also called cyCD98 ECD; recombinant cynomolgus monkey CD98 extracellular domain
T1 chain: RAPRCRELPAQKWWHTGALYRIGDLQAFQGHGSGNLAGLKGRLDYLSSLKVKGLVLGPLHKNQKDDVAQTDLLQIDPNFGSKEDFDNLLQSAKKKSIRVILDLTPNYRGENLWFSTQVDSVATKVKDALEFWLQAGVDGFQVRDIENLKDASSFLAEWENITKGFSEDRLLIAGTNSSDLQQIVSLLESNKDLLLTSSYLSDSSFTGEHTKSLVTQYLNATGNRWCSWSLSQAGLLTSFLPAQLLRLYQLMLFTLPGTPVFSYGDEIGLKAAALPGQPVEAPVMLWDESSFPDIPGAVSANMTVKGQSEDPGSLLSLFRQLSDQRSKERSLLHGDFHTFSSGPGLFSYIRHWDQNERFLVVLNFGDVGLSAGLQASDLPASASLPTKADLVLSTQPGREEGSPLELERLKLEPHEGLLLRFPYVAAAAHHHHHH
Experiment: SPR Biacore, anti-Fc capture of mAb, CD98 ECD analyte
Provide only the numeric value, understood in M⁻¹ s⁻¹.

Ask: Respond only with kon recorded for Anti-CD98 murine hybridoma antibody Ab1 (antibody, V domains shown) VH: EVKLVESGGGLVQPGGSLRLSCATSGFTFTDYYMSWVRQPPGKALEWLGFIRNPANVYTTEYSASVKGRFTISRDNSQSILYLQMNTLRAEDSATYYCARASYGNSEGWFAYWGQGTLVTVSA VL: DIVMSQSPSSLAVSVGEKVTMSCKSSQNLLYNNNQKNYLAWYQQKPGQSPKLLIYWASTRESGVPDRFTGSGSGTDFTLTISSVKAEDLAVYYCQQYYSYPRTFGGGTKLEIK
Reply: 43000

Ask: Respond only with kon recorded for Anti-CD98 rat hybridoma antibody Ab7 (antibody, V domains shown) VH: QVQLKESGPGLVQPSQTLSLTCTVSGFSLSTYGVIWVRQPPGKGLEWMGVIWANGNTNYNSTLKSRLSISRDTSKSQVYLKMNSLQTEDTATYYCARHYYDGTYYYGYFDYWGQGVMVTVSS VL: DIVMTQTPSSQAVSAGEKVTMNCKSSQSLLYSENKKNYLAWYQQKPGQSPKLLIYWASTRESGVPDRFIGSGSGTDFTLTISSVQAEDLAVYYCQQYYYFPYTFGPGTKLELK
Reply: 91000

Ask: Respond only with kon recorded for Anti-CD98 rat hybridoma antibody Ab11 (antibody, V domains shown) VH: EVQLVESGGGLVQPGRSLKLSCAASGFTFSDYAMAWVRQAPKKGLEWVAGIIYDGRGTYYRDSVKGRFTISRDNAKSTLYLQMDSLRSEDTATYYCARQGDGTYYYWGYFDYWGQGVMVTVSS VL: DIVMTQSPSSLAVSAGETVTINCRSSQSLLSSGNQKNYLAWYQQKPGQSPKLLIYWASTRQSGVPDRFIGSGSGTDFTLTISSVQAEDLAIYYCQQYYDTPYTFGAGTKLELK
Reply: 24000
